System: SW948 cells
Test: Cell proliferation assay, sensitivity of SW948 to various drugs
Type: cell-based, human
Conditions: Homo sapiens; SW948 parental cells; 24 h drug exposure, cells counted day 4; mean ± SD of 1-4 assays; read-out: mean IC50 dose, SW948
measurement_kind: log10 of IC50 (log10 of the value in µg/mL)

>>> value("COc1cccc2c1C(=O)c1c(O)c3c(c(O)c1C2=O)C[C@@](O)(C(=O)CO)C[C@@H]3O[C@H]1C[C@H](N)[C@H](O)[C@H](C)O1")
-1.43
>>> value("Nc1ccn([C@@H]2O[C@H](CO)[C@@H](O)C2(F)F)c(=O)n1")
-2.05
>>> value("CC1(C)CCC2=C(O1)c1ccccc1C(=O)C2=O")
0.03
>>> value("COc1cc([C@@H]2c3cc4c(cc3[C@@H](O[C@@H]3O[C@@H]5CO[C@@H](C)O[C@H]5[C@H](O)[C@H]3O)[C@H]3COC(=O)[C@H]23)OCO4)cc(OC)c1O [Etoposide, etoposide]")
-0.10
>>> value("O=c1[nH]cc(F)c(=O)[nH]1")
-0.21
>>> value("CC[C@@]1(O)C(=O)OCc2c1cc1n(c2=O)Cc2cc3ccccc3nc2-1")
-1.24

====

Tested on: SW948CPTL cells
Experiment: Cell proliferation assay, cross-resistance of SW948CPTL
Format: cell-based, human
Conditions: fold change of IC50 vs SW948 (in brackets)
measurement_kind: fold change, SW948CPTL

>>> value("CC[C@@]1(O)C(=O)OCc2c1cc1n(c2=O)Cc2cc3ccccc3nc2-1")
2.4
>>> value("CCc1c2c(nc3ccc(O)cc13)-c1cc3c(c(=O)n1C2)COC(=O)[C@]3(O)CC")
9
>>> value("N.N.[Cl][Pt][Cl] [Cisplatin, cisplatin]")
1.7
>>> value("Nc1ccn([C@@H]2O[C@H](CO)[C@@H](O)C2(F)F)c(=O)n1")
1.8
>>> value("COc1cc([C@@H]2c3cc4c(cc3[C@@H](O[C@@H]3O[C@@H]5CO[C@@H](C)O[C@H]5[C@H](O)[C@H]3O)[C@H]3COC(=O)[C@H]23)OCO4)cc(OC)c1O [Etoposide, etoposide]")
2
